# measurement target: YbaA (Escherichia coli, UniProt P0AAQ6)
# Sequence (P0AAQ6 1-117): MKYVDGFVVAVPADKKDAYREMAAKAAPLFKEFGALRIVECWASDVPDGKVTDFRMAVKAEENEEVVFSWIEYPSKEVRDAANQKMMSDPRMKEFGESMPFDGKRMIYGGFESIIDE

- compound: "O=C(O)c1cn(C2CC2)c2cc(N3CCNCC3)c(F)cc2c1=O"
  Kd: "1000 nM"

###

# measurement target: YjdN (Escherichia coli, UniProt P16681)
# Sequence (P16681 whole entry): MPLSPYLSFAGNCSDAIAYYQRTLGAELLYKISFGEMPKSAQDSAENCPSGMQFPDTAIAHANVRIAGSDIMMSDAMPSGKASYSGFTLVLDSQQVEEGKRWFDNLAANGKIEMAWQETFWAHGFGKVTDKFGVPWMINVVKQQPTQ

- compound: "O=C(O)c1cn(C2CC2)c2cc(N3CCNCC3)c(F)cc2c1=O"
  Kd, µM: 1.4
